Reported z-score of subpopulation abundance values are given for each entry in this list.
tested on: Saccharomyces cerevisiae BY4741 SeMeCo community; test: z-score of subpopulation abundance vs DMSO median, subpopulation auxotrophic for LU; higher = larger share of this subpopulation than in DMSO controls; settings: 10 µM; 24 h; SM minimal medium; subpopulation (auxotrophy): LU
Structures can show the parent of a compound that is named as a salt.
Number, no unit, nothing else.

Worked cases, answers included:
[[record]]
molecule = "Cc1nnc(SCC2=C(C(=O)O)N3C(=O)[C@@H](NC(=O)Cn4cnnn4)[C@H]3SC2)s1 [Cefazolin Sodium]"
endpoint_name = "z-score of subpopulation abundance"
result = 1.43

[[record]]
molecule = "CNCCCC1c2ccccc2C=Cc2ccccc21 [Protriptyline hydrochloride]"
endpoint_name = "z-score of subpopulation abundance"
result = 0.57

[[record]]
molecule = "COc1ccc2cc([C@H](C)C(=O)O)ccc2c1 [Naproxen]"
endpoint_name = "z-score of subpopulation abundance"
result = -1.6

[[record]]
molecule = "CN1[C@@H]2CC[C@H]1C[C@@H](OC(=O)c1c[nH]c3ccccc13)C2 [Tropisetron]"
endpoint_name = "z-score of subpopulation abundance"
result = 0.87

[[record]]
molecule = "COc1cc(NC(C)CCCN)c2ncccc2c1 (stereo unspecified) [Primaquine Diphosphate]"
endpoint_name = "z-score of subpopulation abundance"
result = -1.15


Task: Record CCC[C@@H]1C[C@@H](C(=O)N[C@@H]([C@H]2O[C@H](SC)[C@H](O)[C@@H](O)[C@H]2O)[C@@H](C)O)N(C)C1 [Lincomycin Hydrochloride Monohydrate] : what is its z-score of subpopulation abundance with Saccharomyces cerevisiae BY4741 SeMeCo community?
Result: 0.94

----------
tested on: Saccharomyces cerevisiae BY4741 SeMeCo community; assay: z-score of subpopulation abundance vs DMSO median, subpopulation auxotrophic for HUM; higher = larger share of this subpopulation than in DMSO controls; conditions: 10 µM; 24 h; SM minimal medium; subpopulation (auxotrophy): HUM
Counter-ions that a name gives are not always drawn.
Reported z-score of subpopulation abundance values are given for each entry in this list.
Number, no unit, nothing else.

[[record]]
compound = "Nc1c(Br)cc(Br)cc1CN[C@H]1CC[C@H](O)CC1 [Ambroxol HCl]"
result = -0.94

[[record]]
compound = "CC1=C(C(=O)OC(C)C)C(c2cccc([N+](=O)[O-])c2)C(C(=O)OC2CN(C(c3ccccc3)c3ccccc3)C2)=C(N)N1 (stereo not given) [Azelnidipine]"
result = 0.26

[[record]]
compound = "COC(=O)Nc1nc2cc(Sc3ccccc3)ccc2[nH]1 [Fenbendazole]"
result = 0.36

[[record]]
compound = "O=C(O)CCCCCCCC(=O)O [Azelaic acid]"
result = 0.47


Task: Suppose we examine the compound O=C(O)CCNC(=O)c1ccccc1 [Betamipron] ; what z-score of subpopulation abundance value has been reported?
Result: -0.33

----------
tested on: Saccharomyces cerevisiae BY4741 SeMeCo community; assay: z-score of prototroph abundance vs DMSO median; higher = larger share of this subpopulation than in DMSO controls; settings: 10 µM; 24 h; SM minimal medium; subpopulation (auxotrophy): Prototroph
Structures can show the parent of a compound that is named as a salt.
Threshold rule: z-score of prototroph abundance greater than or equal to -0.1 is Fulfilled; below that, Not fulfilled.

Take a look at these entries with their results.
[[record]]
molecule = "COc1cc(Cc2cnc(N)nc2N)cc(OC)c1OC [Trimethoprim]"
discrete_label = "Fulfilled"

[[record]]
molecule = "CC[C@H](C)C(=O)O[C@H]1C[C@@H](C)C=C2C=C[C@H](C)[C@H](CC[C@@H]3C[C@@H](O)CC(=O)O3)[C@H]21 [Lovastatin]"
discrete_label = "Not fulfilled"

[[record]]
molecule = "CC(C)(C)C(=O)C(Oc1ccc(Cl)cc1)n1ccnc1 (stereo not drawn) [Climbazole]"
discrete_label = "Not fulfilled"

[[record]]
molecule = "CCC1=C(C)CN(C(=O)NCCc2ccc(S(=O)(=O)NC(=O)N[C@H]3CC[C@H](C)CC3)cc2)C1=O [Glimepiride]"
discrete_label = "Not fulfilled"

[[record]]
molecule = "N#Cc1ccc(Oc2ccc3c(c2)COB3O)cc1 [Crisaborole (AN2728)]"
discrete_label = "Not fulfilled"


Task: I'd appreciate it if you could say whether O=C1c2cccc3c2[C@H](CCC3)CN1[C@@H]1CN2CCC1CC2 [Palonosetron] has z-score of prototroph abundance at least equal to -0.1.
Result: Not fulfilled

Task: Input CC(C)[C@H](N)C(=O)OCC(CO)OCn1cnc2c(=O)[nH]c(N)nc21 (stereo partly drawn) [Valganciclovir HCl]
Result: Fulfilled

Task: Input CCN1CCN(C(=O)N[C@@H](C(=O)N[C@@H]2C(=O)N3C(C(=O)O)=C(CSc4nnnn4C)CS[C@H]23)c2ccc(O)cc2)C(=O)C1=O [Cefoperazone]
Result: Fulfilled

----------
system: Saccharomyces cerevisiae BY4741 SeMeCo community; test: z-score of subpopulation abundance vs DMSO median, subpopulation auxotrophic for HUM; higher = larger share of this subpopulation than in DMSO controls; conditions: 10 µM; 24 h; SM minimal medium; subpopulation (auxotrophy): HUM
Structures can show the parent of a compound that is named as a salt.
Threshold rule: z-score of subpopulation abundance greater than or equal to -0.1 is Satisfied; below that, Not satisfied.

Take a look at these entries with their results.
[[record]]
compound = "CO/N=C(\\C(=O)N[C@@H]1C(=O)N2C(C(=O)OCOC(=O)C(C)(C)C)=C(/C=C\\c3scnc3C)CS[C@H]12)c1csc(N)n1"
target_under_test = "Saccharomyces cerevisiae BY4741 SeMeCo community"
discrete_label = "Satisfied"

[[record]]
compound = "CS(=O)(=O)c1ccc([C@@H](O)[C@@H](CF)NC(=O)C(Cl)Cl)cc1"
target_under_test = "Saccharomyces cerevisiae BY4741 SeMeCo community"
discrete_label = "Not satisfied"

[[record]]
compound = "N=C(N)NC(=O)c1nc(Cl)c(N)nc1N [Amiloride HCl]"
target_under_test = "Saccharomyces cerevisiae BY4741 SeMeCo community"
discrete_label = "Not satisfied"

[[record]]
compound = "O=C(CCCN1CCN(c2ccccn2)CC1)c1ccc(F)cc1"
target_under_test = "Saccharomyces cerevisiae BY4741 SeMeCo community"
discrete_label = "Satisfied"

[[record]]
compound = "COCCCN1CCC(NC(=O)c2cc(Cl)c(N)c3c2OCC3)CC1 [Prucalopride]"
target_under_test = "Saccharomyces cerevisiae BY4741 SeMeCo community"
discrete_label = "Satisfied"

[[record]]
compound = "CC(N)C12CC3CC(CC(C3)C1)C2 (configuration not stated)"
target_under_test = "Saccharomyces cerevisiae BY4741 SeMeCo community"
discrete_label = "Satisfied"


Task: I'd appreciate it if you could say whether `COc1ccc(CNc2nc(N3CCC[C@H]3CO)ncc2C(=O)NCc2ncccn2)cc1Cl` has z-score of subpopulation abundance at least equal to -0.1.
Result: Satisfied

Task: Input N/C(=N\N=C\c1ccc(Cl)cc1)N/N=C/c1ccc(Cl)cc1 [Robenidine Hydrochoride]
Result: Satisfied

Task: Input CC(C(=O)O)c1ccc2c(c1)Cc1cccnc1O2 (configuration not stated)
Result: Satisfied

Task: Input CC(C)Cc1ccc(C(C)C(=O)O)cc1 (configuration not stated)
Result: Not satisfied

Task: Input O=C(O)c1cc(/N=N/c2ccc(O)c(C(=O)O)c2)ccc1O [Olsalazine Sodium]
Result: Not satisfied

----------
system: Saccharomyces cerevisiae BY4741 SeMeCo community; assay: z-score of subpopulation abundance vs DMSO median, subpopulation auxotrophic for L; higher = larger share of this subpopulation than in DMSO controls; conditions: 10 µM; 24 h; SM minimal medium; subpopulation (auxotrophy): L
Structures can show the parent of a compound that is named as a salt.
Reported z-score of subpopulation abundance values are given for each entry in this list.

[[record]]
molecule = "Cn1cc(C(=O)[C@@H]2CCc3[nH]cnc3C2)c2ccccc21 [Ramosetron Hydrochloride]"
endpoint_name = "z-score of subpopulation abundance"
result = -0.44

[[record]]
molecule = "CN1C(C(=O)Nc2ccccn2)=C(O)c2ccccc2S1(=O)=O [Piroxicam]"
endpoint_name = "z-score of subpopulation abundance"
result = -0.78

[[record]]
molecule = "CCOC(=O)c1c(CSc2ccccc2)n(C)c2cc(Br)c(O)c(CN(C)C)c12 [Arbidol HCl]"
endpoint_name = "z-score of subpopulation abundance"
result = -0.99

[[record]]
molecule = "Oc1c(I)cc(Cl)c2cccnc12 [Clioquinol]"
endpoint_name = "z-score of subpopulation abundance"
result = -0.06

[[record]]
molecule = "N#Cc1ccc2[nH]cc(CCCCN3CCN(c4ccc5oc(C(N)=O)cc5c4)CC3)c2c1 [Vilazodone]"
endpoint_name = "z-score of subpopulation abundance"
result = 0.06


Task: Suppose we examine the molecule CCCNCC(O)COc1ccccc1C(=O)CCc1ccccc1 (stereo unspecified) [Propafenone HCl] ; what z-score of subpopulation abundance value has been reported?
Result: -0.54

Task: Input CCC[C@@H]1C[C@@H](C(=O)N[C@@H]([C@H]2O[C@H](SC)[C@H](OP(=O)(O)O)[C@@H](O)[C@H]2O)[C@H](C)Cl)N(C)C1 [Clindamycin Phosphate]
Result: -0.86
